system: lss; test: Real-time quantitative PCR of PLsis marker gene expression; type: cell-based, human; conditions: HepG2 cells, 24 hr exposure, relative value, control group = 1.0, GAPDH internal standard, n=3
ENDPOINT: expression variation rate lss

[a] CC[C@H]1OC(=O)[C@H](C)[C@@H](O[C@H]2C[C@@](C)(OC)[C@@H](O)[C@H](C)O2)[C@H](C)[C@@H](O[C@@H]2O[C@H](C)C[C@H](N(C)C)[C@H]2O)[C@](C)(O)C[C@@H](C)C(=O)[C@H](C)[C@@H](O)[C@]1(C)O
[b] CN(C)CCCN1c2ccccc2CCc2ccc(Cl)cc21
[c] CN1CCN(C(c2ccccc2)c2ccc(Cl)cc2)CC1 (stereo not drawn)
Lookup: Rank entries according to their expression variation rate lss, from the largest number down. Sort and list the labels as requested.
Found: c, b, a
